- MEASURED TARGET: CBI receptor (Rattus norvegicus)
- Construct: Preparation of CBI receptor membrane protein in cerebellum of rat
- Sequence (P20272 whole entry): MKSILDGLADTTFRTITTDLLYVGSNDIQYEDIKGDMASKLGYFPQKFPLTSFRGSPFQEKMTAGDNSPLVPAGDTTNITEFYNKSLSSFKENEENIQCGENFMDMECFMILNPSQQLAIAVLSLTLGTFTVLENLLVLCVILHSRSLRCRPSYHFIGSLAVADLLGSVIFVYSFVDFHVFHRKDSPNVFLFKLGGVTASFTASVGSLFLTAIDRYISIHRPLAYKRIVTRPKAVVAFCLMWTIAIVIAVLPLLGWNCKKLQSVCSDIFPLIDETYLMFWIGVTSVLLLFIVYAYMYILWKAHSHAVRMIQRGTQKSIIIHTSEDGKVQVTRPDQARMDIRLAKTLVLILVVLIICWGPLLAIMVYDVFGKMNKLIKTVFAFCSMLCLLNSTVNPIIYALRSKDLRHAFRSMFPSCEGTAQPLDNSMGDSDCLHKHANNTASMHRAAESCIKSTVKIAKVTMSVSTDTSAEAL
- MEASUREMENT PROTOCOL: Drug and CBI receptor competition binding experiment (rat cerebellum membrane protein)
- CONDITION: CBI receptor membrane protein from Wistar rat cerebellum; 30° C. for 1 hour; 1×10^−7 to 1×10^−11 mole concentration; read-out: antagonistic concentration of 50% (EC50) to CBI receptor
REPORTED ENDPOINT: pEC50
Scale explanation: pEC50 corresponds to minus log10 of a concentration expressed in moles per litre.

query: // lookup pEC50 for Cc1c(C(=O)NCc2cccnc2)nn(-c2ccc(Cl)cc2Cl)c1-c1ccc(Cl)cc1
result: 9.89
